The reported measurements were obtained from BigSolDB 2.1.

Experimental context: in acetic acid, 312.97 K
Readout type: solubility (mole fraction)

## Input For CC(C)(O)P1(=O)OCC2(CO1)COP(=O)(C(C)(C)O)OC2 (stereo unspecified) , what is its reported solubility (mole fraction)?
## Output 0.0114

###

Experimental context: in acetic acid, 333.04 K
Readout type: solubility (mole fraction)
Give the figure only, with no unit attached.

## Input What measured solubility (mole fraction) goes with CC(C)(O)P1(=O)OCC2(CO1)COP(=O)(C(C)(C)O)OC2 (stereo unspecified) ?
## Output 0.0196

###

Experimental context: in ethanol, 297.63 K
Readout type: solubility (mole fraction)
// keep it numeric: no unit symbol after the value

## Input Would you kindly share the measured solubility (mole fraction) for CC(C)(O)P1(=O)OCC2(CO1)COP(=O)(C(C)(C)O)OC2 (stereo unspecified) ?
## Output 0.00184

###

Experimental context: in methanol, 312.76 K
Readout type: solubility (mole fraction)
// response body must contain only the number

## Input I am curious: what solubility (mole fraction) value has been reported for CC(C)(O)P1(=O)OCC2(CO1)COP(=O)(C(C)(C)O)OC2 (stereo unspecified) ?
## Output 0.00998

###

Experimental context: in acetic acid, 318.05 K
Readout type: solubility (mole fraction)
Respond using a number only.

## Input What measured solubility (mole fraction) goes with CC(C)(O)P1(=O)OCC2(CO1)COP(=O)(C(C)(C)O)OC2 (stereo unspecified) ?
## Output 0.0131

###

Experimental context: in acetic acid, 298.15 K
Readout type: solubility (mole fraction)
Give the figure by itself; no unit, no explanation.

## Input Look up solubility (mole fraction): CC(C)(O)P1(=O)OCC2(CO1)COP(=O)(C(C)(C)O)OC2 (stereo unspecified)
## Output 0.0078

###

Experimental context: in methanol, 307.75 K
Readout type: solubility (mole fraction)
Could you keep your reply to the number by itself?

## Input What measured solubility (mole fraction) goes with CC(C)(O)P1(=O)OCC2(CO1)COP(=O)(C(C)(C)O)OC2 (stereo unspecified) ?
## Output 0.00875

###

Experimental context: in ethanol, 318.16 K
Readout type: solubility (mole fraction)
Output: the number by itself.

## Input Report solubility (mole fraction) for CC(C)(O)P1(=O)OCC2(CO1)COP(=O)(C(C)(C)O)OC2 (stereo unspecified) please.
## Output 0.00391

###

Experimental context: in acetic acid, 307.96 K
Readout type: solubility (mole fraction)
Keep the answer to the number alone.

## Input Which solubility (mole fraction) is reported for this compound? CC(C)(O)P1(=O)OCC2(CO1)COP(=O)(C(C)(C)O)OC2 (stereo unspecified)
## Output 0.0104

###

Experimental context: in ethanol, 337.94 K
Readout type: solubility (mole fraction)

## Input Reported solubility (mole fraction), compound CC(C)(O)P1(=O)OCC2(CO1)COP(=O)(C(C)(C)O)OC2 (stereo unspecified) : ____
## Output 0.00846

###

Experimental context: in water, 298.01 K
Readout type: solubility (mole fraction)
Form rule: numeric answer, no unit written next to it.

## Input For the compound CC(C)(O)P1(=O)OCC2(CO1)COP(=O)(C(C)(C)O)OC2 (stereo unspecified) , what solubility (mole fraction) is on record?
## Output 0.00585

###

Experimental context: in ethanol, 294.15 K
Readout type: solubility (mole fraction)

## Input What measured solubility (mole fraction) goes with CC(C)(O)P1(=O)OCC2(CO1)COP(=O)(C(C)(C)O)OC2 (stereo unspecified) ?
## Output 0.00153
